Molecular target: SIRT1 (Homo sapiens, UniProt Q96EB6)
Test: mass spectrometry based SIRT1 deacetylation assay (activation)
Assay type: biochemical
Conditions: 0.5 μM peptide substrate, 120 μM βNAD+, 10 nM SIRT1, 25 min at 25° C.; read-out: % FOLD ACT. (percent maximum fold activation of SIRT1)
Label rule met when Emax is at or above 400%; anything below gets rule not met.

Field: example entries. Status: answers known.
compound	group
COCCN1CCN(Cc2cnc3sc(-c4ccccc4NC(=O)c4cccc(-c5cc(F)ccc5F)n4)nc3c2)CC1 [Compound 145]	rule met
O=C(Nc1ccccc1-c1nc2cc(CN3CCOCC3)cnc2s1)c1cccc(-c2ccncc2)c1 [Compound 6]	rule not met
COCCN1CCN(Cc2cnc3sc(-c4ccccc4NC(=O)c4cccc(-n5cccn5)c4)nc3c2)CC1 [Compound 45]	rule met

Determine whether measured Emax meets or exceeds 400% for COCCN1CCN(Cc2cnc3sc(-c4ccccc4NC(=O)c4cccc(-c5cccc(Cl)c5)n4)nc3c2)CC1 [Compound 138] rule met

Assess whether reported Emax for COCCN1CCN(Cc2cnc3sc(-c4ccccc4NC(=O)c4cccc(-c5csc(C)n5)c4)nc3c2)CC1 [Compound 41] sits at 400% or higher. rule not met

Does COCCN1CCN(Cc2cnc3sc(-c4ccccc4NC(=O)c4cccc(-c5ccc(F)cc5)n4)nc3c2)CC1 [Compound 141] have a reported Emax of at least 400%? rule met

Item COCCN1CCN(Cc2cnc3sc(-c4ccccc4NC(=O)c4cccc(-c5cccc(F)c5)n4)nc3c2)CC1 [Compound 57] with Emax of 400% or above? rule met

Form field: Emax at least 400%? Entry: O=C(Nc1ccccc1-c1nc2cc(CN3CCCC3)cnc2s1)c1cccc(-c2ccccc2)c1 [Compound 13] rule not met

For this compound, is measured Emax 400% or higher? O=C(Nc1ccccc1-c1nc2cc(CN3CC[C@@H](F)C3)cnc2s1)c1ccc2ccccc2n1 [Compound 113] rule not met

Is the recorded value of Emax equal to or greater than 400% for this compound? O=C(Nc1ccccc1-c1nc2cc(CN3CCCC(F)(F)C3)cnc2s1)c1ccc2ccccc2n1 [Compound 118] rule not met

Is the recorded value of Emax equal to or greater than 400% for this compound? Cc1nc(-c2cccnc2)sc1C(=O)Nc1ccccc1-c1nc2cc(CNC(C)C)cnc2s1 [Compound 83] rule not met

---

Molecular target: UniProt Q96EB6
Sequence (Q96EB6 1-747): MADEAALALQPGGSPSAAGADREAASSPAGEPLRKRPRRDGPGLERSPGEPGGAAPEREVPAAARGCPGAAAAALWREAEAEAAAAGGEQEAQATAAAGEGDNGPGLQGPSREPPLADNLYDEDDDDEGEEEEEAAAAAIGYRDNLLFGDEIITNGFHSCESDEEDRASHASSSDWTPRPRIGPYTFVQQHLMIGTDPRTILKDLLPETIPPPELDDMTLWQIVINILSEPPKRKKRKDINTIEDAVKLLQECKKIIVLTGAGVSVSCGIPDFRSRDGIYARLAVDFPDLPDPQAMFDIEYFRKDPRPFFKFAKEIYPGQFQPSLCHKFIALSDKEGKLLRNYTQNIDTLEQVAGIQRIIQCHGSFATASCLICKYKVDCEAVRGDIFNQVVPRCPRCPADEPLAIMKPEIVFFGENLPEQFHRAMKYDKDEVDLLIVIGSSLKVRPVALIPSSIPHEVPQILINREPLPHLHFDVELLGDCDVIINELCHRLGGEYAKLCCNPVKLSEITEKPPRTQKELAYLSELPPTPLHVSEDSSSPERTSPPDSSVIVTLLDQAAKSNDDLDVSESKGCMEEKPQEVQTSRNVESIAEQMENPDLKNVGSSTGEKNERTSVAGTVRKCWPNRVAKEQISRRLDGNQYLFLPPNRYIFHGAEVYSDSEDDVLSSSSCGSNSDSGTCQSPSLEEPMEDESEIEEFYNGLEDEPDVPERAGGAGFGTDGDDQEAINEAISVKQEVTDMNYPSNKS
Test: mass spectrometry based SIRT1 deacetylation assay (activation)
Assay type: biochemical
Conditions: 0.5 μM peptide substrate, 120 μM βNAD+, 10 nM SIRT1, 25 min at 25° C.; read-out: % FOLD ACT. (percent maximum fold activation of SIRT1)
Source text: A mass spectrometry based assay was used to identify modulators of SIRT1 activity. The mass spectrometry based assay utilizes a peptide having 20 amino acid residues as follows: Ac-EE-K(biotin)-GQSTSSHSK(Ac)NleSTEG-K(5TMR)-EE-NH2 (SEQ ID NO: 1) wherein K(Ac) is an acetylated lysine residue and Nle is a norleucine. The peptide is labeled with the fluorophore 5TMR (excitation 540 nm/emission 580 nm) at the C-terminus. The sequence of the peptide substrate is based on p53 with several modifications. […]
Entries and their measured Emax follow.
Express your answer in %, writing the number without its unit.

molecule	Emax, %
Cn1cc(-c2ccccc2)cc1C(=O)Nc1ccccc1-c1nc2cc(CN3CCOCC3)cnc2s1 [Compound 150]	267

Could you tell me which Emax is on file for O=C(Nc1ccccc1-c1nc2cc(CN3CCC(O)CC3)cnc2s1)c1ccc2ccccc2n1 [Compound 99] ? 244

# get_value(readout='Emax', item= O=C(Nc1ccccc1-c1nc2cc(CN[C@H]3CC[C@H](O)CC3)cnc2s1)c1ccc2ccccc2n1 [Compound 117] ) 324

---

Target: UniProt:Q96EB6
Test: mass spectrometry based SIRT1 deacetylation assay (activation)
Type: biochemical
Settings: 0.5 μM peptide substrate, 120 μM βNAD+, 10 nM SIRT1, 25 min at 25° C.; read-out: % FOLD ACT. (percent maximum fold activation of SIRT1)
quantity.name: Emax (%)
# output: bare number, implied unit %

compound	reported.measurement
COCCN1CCN(Cc2cnc3sc(-c4ccccc4NC(=O)c4cccc(-c5cccnc5)c4)nc3c2)CC1 [Compound 58]	370
O=C(Nc1ccccc1-c1nc2cc(CN[C@@H]3CCC[C@H]3O)cnc2s1)c1ccc2ccccc2n1 [Compound 121]	291
CN1CCN(Cc2cnc3sc(-c4ccccc4NC(=O)c4ccc5ccccc5n4)nc3c2)CC1 [Compound 90]	221
Cc1c(C(=O)Nc2ccccc2-c2nc3cc(CN4CCNCC4)cnc3s2)oc2ccccc12 [Compound 89]	239

Name the reported Emax value associated with the compound O=C(Nc1ccccc1-c1nc2cc(CN3CC[C@H](O)C3)cnc2s1)c1ccc2ccccc2n1 [Compound 110] 307

Look at this compound and give its reported Emax. COCCN1CCN(Cc2cnc3sc(-c4ccccc4NC(=O)c4cc(-c5ccccc5)ccn4)nc3c2)CC1 [Compound 86] 137

// lookup Emax for COCCN1CCN(Cc2cnc3sc(-c4ccccc4NC(=O)c4ccn(-c5ccccc5)n4)nc3c2)CC1 [Compound 155] 364

So what does the record say about Emax for O=C(Nc1ccccc1-c1nc2cc(CN3CCOCC3)cnc2s1)c1nc2ccccc2s1 [Compound 93] ? 236

Entry O=C(Nc1ccccc1-c1nc2cc(CN3CCOCC3)cnc2s1)c1cncc(-c2cccc(F)c2)c1 [Compound 51] has what Emax? 172

Can you share its Emax? I mean this compound: COCCN1CCN(Cc2cnc3sc(-c4ccccc4NC(=O)c4cccc(-c5ccc(C#N)cc5)n4)nc3c2)CC1 [Compound 144] 402

Recorded Emax for O=C(Nc1ccccc1-c1nc2cc(CN3CCOCC3)cnc2s1)c1cccc(-c2ccccc2F)n1 [Compound 52] , please? 411

Could you tell me which Emax is on file for O=C(Nc1ccccc1-c1nc2cc(CN3CC[C@@H](F)C3)cnc2s1)c1cccc(-c2cccc(F)c2)n1 [Compound 54] ? 538

Quick one: Emax of O=C(Nc1ccccc1-c1nc2cc(CN3CCOCC3)cnc2s1)c1cccc(-c2ccccn2)c1 [Compound 4] ? 321

What measured Emax goes with O=C(Nc1ccccc1-c1nc2cc(CN3CC[C@@H](F)C3)cnc2s1)c1cn2cc(C(F)(F)F)ccc2n1 [Compound 129] ? 100

Which Emax reading was recorded for the compound COCCN1CCN(Cc2cnc3sc(-c4ccccc4NC(=O)c4sc(-c5cccnc5)nc4C)nc3c2)CC1 [Compound 85] ? 182
